Some compounds, each annotated with its measured IC50.
System: SAM in HCT116 human colon carcinoma cell line with deleted MTAP gene
assay_overview: Cellular assay of target engagement (SAM): SAM level by LC-MS/MS after 72 hrs
Format: cell-based
cond: HCT-116, IC50 score, read-out: Cell 72 h SAM Inhibition (MTAP −/−)

COc1ccc(-n2c(=O)c(-c3ccc4nc(N)n(C)c4c3)cc3ccc(OCC(F)(F)F)nc32)cc1 < 100 nM
CCNc1ccc2nc(-c3ccc4nn(C)cc4c3)c(=O)n(-c3ccc(OC)cc3)c2n1 < 100 nM
[2H]C([2H])([2H])Oc1ccc(-n2c(=O)c(-c3ccc4nn(C)cc4c3)cc3ccc(OCCF)nc32)cc1 < 100 nM

Pending compound:
Return reported IC50; argument: COc1ccc(-n2c(=O)c(-c3ccc(=O)[nH]c3)cc3cnc(NCC(F)(F)F)nc32)cc1
100 to 1000 nM

----------
System: SAM in HCT116 human colon carcinoma cell line with deleted MTAP gene
assay_overview: Cellular assay of target engagement (SAM): SAM level by LC-MS/MS after 72 hrs
Format: cell-based
cond: HCT-116, IC50 score, read-out: Cell 72 h SAM Inhibition (MTAP −/−)
property_name: IC50

compound	IC50
[2H]C([2H])([2H])Oc1ccc(-n2c(=O)c(-c3ccc4nn(C)cc4c3)nc3ccc(OCC(F)(F)F)nc32)cc1 [Example 326]	< 100 nM
Cc1ccc(-n2c(=O)c(-c3ccc4nn(C)cc4c3)nc3ccc(OCC(F)(F)F)nc32)cn1 [Example 333]	< 100 nM

Kindly state the measured IC50 obtained for COc1ccc(-n2c(=O)c(-c3ccc4ncoc4c3)cc3cnc(NCC(F)(F)F)nc32)cc1 [Example 189] with SAM in HCT116 human colon carcinoma cell line with deleted MTAP gene.
100 to 1000 nM

Cool, now COc1ccc(-n2c(=O)c(-c3cn[nH]c3)cc3cnc(NCC(F)(F)F)nc32)cc1 [Example 183]
100 to 1000 nM

----------
tested_system: MAT2A homodimer (Homo sapiens, UniProt P31153)
Construct: inferred from Ni sepharose purification and imidazole elution
Sequence (P31153 whole entry): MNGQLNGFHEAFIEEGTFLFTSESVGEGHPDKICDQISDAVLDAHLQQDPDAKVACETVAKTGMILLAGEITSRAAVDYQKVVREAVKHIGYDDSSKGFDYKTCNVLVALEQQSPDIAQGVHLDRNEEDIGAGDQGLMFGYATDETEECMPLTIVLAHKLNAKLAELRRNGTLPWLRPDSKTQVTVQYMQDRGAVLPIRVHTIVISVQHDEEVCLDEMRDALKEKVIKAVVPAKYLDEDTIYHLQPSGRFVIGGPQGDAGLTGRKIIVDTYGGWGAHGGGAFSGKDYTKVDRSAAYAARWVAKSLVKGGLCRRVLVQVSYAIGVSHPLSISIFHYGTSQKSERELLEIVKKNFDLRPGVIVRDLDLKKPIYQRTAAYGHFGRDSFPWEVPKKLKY
assay_overview: Biochemical assay: inhibition of recombinant MAT2A homodimer (phosphate release, PiColorLock Gold)
cond: MAT2A IC50 score; read-out: Enzyme Inhibition
pIC50: −log10 of the molar value.
Some molecules, each annotated with its measured pIC50.

CCOc1ccc2cc(-c3ccc4nn(C)cc4c3)c(=O)n(-c3ccc(Cl)cc3)c2n1 > 7.00
CNc1ccc(-n2c(=O)c(-c3ccc4nn(C)cc4c3)nc3ccc(OCC(F)(F)F)nc32)cn1 > 7.00
COc1ccc(-n2c(=O)c(-c3ccc(S(C)(=O)=O)cc3)cc3cnc(NCC(F)(F)F)nc32)cc1 6.00 to 7.00
Cn1cc2cc(-c3cc4ccc(NCC(F)(F)F)nc4n(-c4ccc(C5CC5)nc4)c3=O)ccc2n1 > 7.00

Return reported pIC50; argument: CN(C)c1ccc(-n2c(=O)c(-c3ccc4nn(C)cc4c3)cc3ccc(OCC(F)(F)F)nc32)cn1
> 7.00

Cool, now COc1ccc(-n2c(=O)c(-c3ccc4ncccc4c3)cc3cnc(SC)nc32)cc1
6.00 to 7.00

Cool, now COc1ccc(-c2cc3cnc(SC)nc3n(-c3ccc(OC)cc3)c2=O)cc1
6.00 to 7.00

Cool, now COc1ccc(-n2c(=O)c(-c3ccc4nn(C)cc4c3)cc3ccc(OCC(F)F)nc32)cn1
> 7.00
